Where a name gives a salt, the structure may show the parent alone.
MEASURED QUANTITY: melting point

A selection of reference data follows.
O=S(=O)(c1cn(CC2CCCN2)c2ncccc12)c1c(Cl)nc2sccn12 (stereo not shown) (as salt: hydrochloride): 246 to 247 °C
CN1CCCC1Cn1cc(S(=O)(=O)c2cccc(F)c2)c2cccnc21 (stereo not shown) (as salt: hydrochloride): 208 to 209 °C

Lab note: each molecule below needs its melting point filled in.
1. O=S(=O)(c1cccc(F)c1)c1cn(CC2CCCN2)c2ncccc12 (stereo not shown) (as salt: hydrochloride)
2. O=S(=O)(c1cn(CC2CCCN2Cc2ccccc2)c2ncccc12)c1c(Cl)nc2sccn12 (stereo not shown)
3. O=S(=O)(c1ccccc1)c1cn(CC2CCCN2Cc2ccccc2)c2ncccc12 (stereo not shown) (as salt: hydrochloride)
4. O=S(=O)(c1ccc(Cl)s1)c1cn(CC2CCCN2)c2ncccc12 (stereo not shown) (as salt: hydrochloride)
5. O=S(=O)(c1cccc(F)c1)c1cn(CC2CCCN2Cc2ccccc2)c2ncccc12 (stereo not shown) (as salt: hydrochloride)

1. 181 to 182 °C
2. 102 to 103 °C
3. 218 to 220 °C
4. 106 to 107 °C
5. 128 to 129 °C
